experimental-target: Histamine H1 receptor (Homo sapiens)
Sequence (P35367 whole entry): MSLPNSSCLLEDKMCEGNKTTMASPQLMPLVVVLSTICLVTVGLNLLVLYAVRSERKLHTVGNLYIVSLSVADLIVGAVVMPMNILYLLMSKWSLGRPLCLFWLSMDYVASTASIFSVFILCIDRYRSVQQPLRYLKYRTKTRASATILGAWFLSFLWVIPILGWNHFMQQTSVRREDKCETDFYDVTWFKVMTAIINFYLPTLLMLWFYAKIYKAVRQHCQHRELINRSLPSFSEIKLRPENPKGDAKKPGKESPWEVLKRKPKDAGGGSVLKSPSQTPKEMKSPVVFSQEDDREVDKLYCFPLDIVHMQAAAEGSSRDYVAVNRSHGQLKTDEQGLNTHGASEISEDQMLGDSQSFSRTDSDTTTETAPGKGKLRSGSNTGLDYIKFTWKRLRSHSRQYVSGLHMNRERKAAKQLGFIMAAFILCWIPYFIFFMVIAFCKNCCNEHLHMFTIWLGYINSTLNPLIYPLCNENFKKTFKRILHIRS

compound: CN1CCN2c3c(cccc31)[C@@H]1CN(CCCC(=O)c3ccc(F)cc3)CC[C@@H]12.Cc1ccc(S(=O)(=O)O)cc1 [LUMATEPERONE TOSYLATE]
Ki: > 1 µM

====

# reported pKi; entries follow
experimental-target: D(2) dopamine receptor (Rattus norvegicus)
Sequence (P61169 whole entry): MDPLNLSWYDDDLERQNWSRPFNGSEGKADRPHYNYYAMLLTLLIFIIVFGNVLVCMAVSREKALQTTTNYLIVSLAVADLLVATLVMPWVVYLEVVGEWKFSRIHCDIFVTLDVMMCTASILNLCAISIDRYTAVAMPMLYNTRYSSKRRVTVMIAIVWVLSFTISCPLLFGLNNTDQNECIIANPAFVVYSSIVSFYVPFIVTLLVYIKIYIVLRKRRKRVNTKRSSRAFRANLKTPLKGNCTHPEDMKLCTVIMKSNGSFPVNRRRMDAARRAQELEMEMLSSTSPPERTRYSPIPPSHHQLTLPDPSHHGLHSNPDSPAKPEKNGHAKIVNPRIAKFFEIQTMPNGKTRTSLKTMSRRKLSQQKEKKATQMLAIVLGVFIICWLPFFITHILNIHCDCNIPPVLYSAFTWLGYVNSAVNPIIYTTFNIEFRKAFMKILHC
pKi: −log10 of the molar value.
experimental-endpoint: pKi

compound: CN1CCN2c3c(cccc31)[C@@H]1CN(CCCC(=O)N3CCC(F)(F)CC3)CC[C@@H]12
experimental-endpoint: pKi
limit-sign: <
experimental-value: 6.00
--
compound: O=C(CCCN1CC[C@H]2[C@@H](C1)c1cccc3c1N2CCN3Cc1ccccc1)c1ccc(F)cc1
experimental-endpoint: pKi
limit-sign: =
experimental-value: 7.07
--
compound: Cc1ccn2c(=O)c(CCN3CC[C@H]4[C@@H](C3)c3cccc5c3N4CCN5C)c(C)nc2c1
experimental-endpoint: pKi
limit-sign: =
experimental-value: 5.52
--
compound: O=C(CCCN1CC[C@H]2[C@@H](C1)c1cccc3c1N2CC3)c1ccc(F)cc1
experimental-endpoint: pKi
limit-sign: =
experimental-value: 7.15
